Cited source: paper PMC12416549

Recorded apparent Kd (screen), one value per entry.
Assayed Target: T1, TNFR1 (Homo sapiens, UniProt P19438)
T1 chain: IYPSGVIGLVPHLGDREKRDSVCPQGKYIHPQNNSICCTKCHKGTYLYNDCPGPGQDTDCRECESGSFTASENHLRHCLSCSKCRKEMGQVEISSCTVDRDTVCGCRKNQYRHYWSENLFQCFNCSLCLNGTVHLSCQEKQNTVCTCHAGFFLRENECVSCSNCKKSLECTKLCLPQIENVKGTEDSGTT
Test: yeast display SC50
Kindly answer with a numeric value in nM, unit omitted.

apparent Kd (screen) measured on L99P (designed binder) SMEEEVEKAAKEYEKKKKEAIEKHLEKLKAKDKEAAERFLKELEEAAKEYAKDEAKTMSEEEAKRRAKKYKEKVLLSELSEEEQKEIKEAEEKLVRTIPKYVEEAAK = 15.2

Lab book: apparent Kd (screen) of R38Q (designed binder) SMEEEVEKAAKEYEKKKKEAIEKHLEKLKAKDKEAAEQFLKELEEAAKEYAKDEAKTMSEEEAKRRAKKYKEKVLLSELSEEEQKEIKEAEEKLVRTILKYVEEAAK noted as 1.86

Kindly note the recorded apparent Kd (screen) for R65K (designed binder) SMEEEVEKAAKEYEKKKKEAIEKHLEKLKAKDKEAAERFLKELEEAAKEYAKDEAKTMSEEEAKKRAKKYKEKVLLSELSEEEQKEIKEAEEKLVRTILKYVEEAAK , which is 0.869

Here is another binder to look at.
apparent Kd (screen) reading for E62H (designed binder) SMEEEVEKAAKEYEKKKKEAIEKHLEKLKAKDKEAAERFLKELEEAAKEYAKDEAKTMSEEHAKRRAKKYKEKVLLSELSEEEQKEIKEAEEKLVRTILKYVEEAAK : 0.79
